measuredTarget: Cloned Neurokinin Receptor Subtype 2 Human (Homo sapiens)
Construct: purchased Biosignal Packard; host or cells: CHO cells
Sequence (P21452 1-398): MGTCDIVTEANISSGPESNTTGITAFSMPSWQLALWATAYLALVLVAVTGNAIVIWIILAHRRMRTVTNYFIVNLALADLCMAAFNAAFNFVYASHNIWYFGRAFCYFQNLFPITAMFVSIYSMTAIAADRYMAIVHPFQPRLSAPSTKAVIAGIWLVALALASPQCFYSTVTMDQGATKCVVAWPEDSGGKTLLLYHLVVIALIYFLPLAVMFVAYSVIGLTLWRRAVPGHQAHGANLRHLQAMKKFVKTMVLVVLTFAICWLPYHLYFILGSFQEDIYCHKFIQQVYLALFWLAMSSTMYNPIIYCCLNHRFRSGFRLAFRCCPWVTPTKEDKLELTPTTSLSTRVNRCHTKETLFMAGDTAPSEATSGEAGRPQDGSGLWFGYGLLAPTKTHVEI
test: NK-2 receptor-binding experiment ([3H]-SR48968, CHO cell membranes)
conditionNotes: Table 3; inhibition of [3H]-SR48968 (0.85 nM) binding, pseudo-Hill analysis
pIC50: −log10 of the molar value. Where a name gives a salt, the structure may show the parent alone.
parameterMeasured: pIC50

INSERT INTO assay_data (compound, measuredtarget, assayresult) VALUES
  ('CN(C[C@](CCN1CCC2(CC1)NC(=O)Cc1ccccc12)(c1ccc(Cl)c(Cl)c1)N(C)C(=O)c1ccc(C(F)(F)F)cc1)C(=O)C(F)(F)F [Compound No. 24, hydrochloride]', 'Cloned Neurokinin Receptor Subtype 2 Human (Homo sapiens)', 8.54);

[P] CN(C[C@](CCN1CCC2(CC1)c1ccccc1CS2(=O)=O)(c1ccc(Cl)c(Cl)c1)N(C)C(=O)Cc1ccccc1)C(=O)CC(F)(F)F [Compound No. 28, hydrochloride]
[Q] CN(C[C@](CCN1CCC2(CC1)c1ccccc1C[S@+]2[O-])(c1ccc(Cl)c(Cl)c1)N(C)C(=O)c1ccccc1F)C(=O)CC(F)(F)F [Compound No. 30, hydrochloride]
Would you kindly point out which of P and Q has the smaller pIC50 figure? Select an item and report its label.
P

[P] CN(CC(CCN1CCC2(CC1)c1ccccc1C[S@+]2[O-])(c1ccc(Cl)c(Cl)c1)N(C)C(=O)C(=O)N(C)c1ccccc1)C(=O)CC(F)(F)F (single isomer, unassigned)
[Q] CCN(C(=O)C(=O)N(C)[C@](CCN1CCC2(CC1)c1ccccc1C[S@+]2[O-])(CN(C)C(=O)C(C)(C)C)c1ccc(Cl)c(Cl)c1)c1ccccc1 [Compound No. 37, hydrochloride]
Compare the recorded pIC50 of P and Q ; state which is larger. Select an item and report its label.
Q

---

measuredTarget: NK-1 receptor (Homo sapiens)
Sequence (P25103 whole entry): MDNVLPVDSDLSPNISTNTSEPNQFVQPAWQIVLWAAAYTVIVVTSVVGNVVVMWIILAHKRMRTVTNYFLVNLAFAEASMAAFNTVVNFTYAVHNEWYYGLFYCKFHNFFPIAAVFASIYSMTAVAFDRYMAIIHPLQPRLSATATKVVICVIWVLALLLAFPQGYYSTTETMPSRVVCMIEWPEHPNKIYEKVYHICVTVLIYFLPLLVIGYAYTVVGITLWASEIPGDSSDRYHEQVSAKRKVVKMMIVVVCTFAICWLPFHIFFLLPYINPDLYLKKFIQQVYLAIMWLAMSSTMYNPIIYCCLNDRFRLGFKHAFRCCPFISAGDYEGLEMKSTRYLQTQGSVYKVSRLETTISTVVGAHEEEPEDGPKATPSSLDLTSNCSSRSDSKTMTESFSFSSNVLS
test: NK-1 receptor-binding test ([3H]-Substance P, hNK1-CHO cells)
Parameters: expressed in transfected cells; host or cells: CHO-K1 cells (ATCC: CCL-61), G418-resistant, hNK1-CHO
conditionNotes: Table 4; inhibition of [3H]-Substance P (0.5 nM) binding to hNK1-CHO cells, pseudo-Hill analysis; read-out: NK-1
Structures can show the parent of a compound that is named as a salt.
parameterMeasured: IC50 (nM)

Below: 5 molecules and their reported IC50.
INSERT INTO assay_data (molecule, measuredtarget, parametermeasured, assayresult) VALUES
  ('CN(CC(CCN1CCC2(CC1)c1ccccc1C[S+]2[O-])(c1ccc(Cl)c(Cl)c1)N(C)C(=O)CC(c1ccccc1)c1ccccc1)C(=O)CC(F)(F)F (stereo not shown) [Compound No. 1, hydrochloride]', 'NK-1 receptor (Homo sapiens)', 'IC50', 1.2),
  ('CN(CC(CCN1CCC2(CC1)c1ccccc1C[S@+]2[O-])(c1ccc(Cl)c(Cl)c1)N(C)C(=O)NC(c1ccccc1)c1ccccc1)C(=O)C(F)(F)Cl (stereo partly shown) [Compound No. 4, hydrochloride]', 'NK-1 receptor (Homo sapiens)', 'IC50', 3.4),
  ('CC(C)C(=O)N(C)C[C@](CCN1CCC2(CC1)c1ccccc1C[S@+]2[O-])(c1ccc(Cl)c(Cl)c1)N(C)C(=O)CC(c1ccccc1)c1ccccc1 [Compound No. 45, hydrobromide]', 'NK-1 receptor (Homo sapiens)', 'IC50', 4.9),
  ('CC(C)C(=O)N(C)C[C@](CCN1CCC2(CC1)NC(=O)Cc1ccccc12)(c1ccc(Cl)c(Cl)c1)N(C)C(=O)NC(c1ccccc1)c1ccccc1', 'NK-1 receptor (Homo sapiens)', 'IC50', 11),
  ('CN(C[C@](CCN1CCC2(CC1)NC(=O)Cc1ccccc12)(c1ccc(Cl)c(Cl)c1)N(C)C(=O)NC(c1ccccc1)c1ccccc1)C(=O)C(F)(F)F', 'NK-1 receptor (Homo sapiens)', 'IC50', 10.1);

[1] CCC(=O)N(C)CC(CCN1CCC2(CC1)c1ccccc1C[S+]2[O-])(c1ccc(Cl)c(Cl)c1)N(C)C(=O)CC(c1ccccc1)c1ccccc1 (stereo not shown) [Compound No. 5, hydrochloride]
[2] CC(=O)NC1(c2ccccc2)CCN(CCC(CN(C)C(=O)C(F)F)(c2ccc(Cl)c(Cl)c2)N(C)C(=O)NC(c2ccccc2)c2ccccc2)CC1 (stereo not shown) [Compound No. 12, hydrochloride]
Would you kindly point out which of 1 and 2 has the smaller IC50 figure? Select an item and report its label.
1

[1] CN(C[C@](CCN1CCC2(CC1)NC(=O)Cc1ccccc12)(c1ccc(Cl)c(Cl)c1)N(C)C(=O)C(c1ccccc1)c1ccccc1)C(=O)CC(F)(F)F [Compound No. 43, hydrochloride]
[2] CC(C)C(=O)N(C)CC(CCN1CCC2(CC1)c1ccccc1C[S+]2[O-])(c1ccc(Cl)c(Cl)c1)N(C)C(=O)CC(c1ccccc1)c1ccccc1 (stereo not shown) [Compound No. 2, hydrochloride]
[3] CN(C[C@](CCN1CCC2(CC1)c1ccccc1C[S@+]2[O-])(c1ccc(Cl)c(Cl)c1)N(C)C(=O)C(c1ccccc1)c1ccccc1)C(=O)CC(F)(F)F [Compound No. 42, hydrochloride]
Output the entries ranked by IC50 from maximum down to minimum. Answer format: the labels, in the requested order.
1, 2, 3
(1: 7.7 nM, 2: 4.3 nM, 3: 2.1 nM)

---

measuredTarget: Cloned Neurokinin Receptor Subtype 2 Human (Homo sapiens, UniProt P21452)
Construct: purchased Biosignal Packard; host or cells: CHO cells
test: NK-2 receptor-binding experiment ([3H]-SR48968, CHO cell membranes)
conditionNotes: Table 4; inhibition of [3H]-SR48968 (0.85 nM) binding, pseudo-Hill analysis
Where a name gives a salt, the structure may show the parent alone.
parameterMeasured: IC50 (nM)

Below: 3 compounds and their reported IC50.
INSERT INTO results (compound, measuredtarget, parametermeasured, readoutunit, assayresult) VALUES
  ('CC(C)C(=O)N(C)C[C@](CCN1CCC2(CC1)NC(=O)Cc1ccccc12)(c1ccc(Cl)c(Cl)c1)N(C)C(=O)NC(c1ccccc1)c1ccccc1', 'Cloned Neurokinin Receptor Subtype 2 Human (Homo sapiens, UniProt P21452)', 'IC50', 'nM', 2.4),
  ('CN(CC(CCN1CCC2(CC1)c1ccccc1C[S@+]2[O-])(c1ccc(Cl)c(Cl)c1)N(C)C(=O)NC(c1ccccc1)c1ccccc1)C(=O)C(F)(F)Cl (some centres unmarked) [Compound No. 4, hydrochloride]', 'Cloned Neurokinin Receptor Subtype 2 Human (Homo sapiens, UniProt P21452)', 'IC50', 'nM', 1.5),
  ('CN(C[C@](CCN1CCC2(CC1)NC(=O)Cc1ccccc12)(c1ccc(Cl)c(Cl)c1)N(C)C(=O)C(c1ccccc1)c1ccccc1)C(=O)CC(F)(F)F [Compound No. 43, hydrochloride]', 'Cloned Neurokinin Receptor Subtype 2 Human (Homo sapiens, UniProt P21452)', 'IC50', 'nM', 2.1);

[A] CCC(=O)N(C)CC(CCN1CCC2(CC1)c1ccccc1C[S+]2[O-])(c1ccc(Cl)c(Cl)c1)N(C)C(=O)CC(c1ccccc1)c1ccccc1 (centres unmarked) [Compound No. 5, hydrochloride]
[B] CC(C)C(=O)N(C)C[C@](CCN1CCC2(CC1)c1ccccc1C[S@+]2[O-])(c1ccc(Cl)c(Cl)c1)N(C)C(=O)CC(c1ccccc1)c1ccccc1 [Compound No. 45, hydrobromide]
Compare the recorded IC50 of A and B ; state which is larger. Select an item and report its label.
B

---

measuredTarget: NK-1 receptor (Homo sapiens)
test: NK-1 receptor-binding test ([3H]-Substance P, hNK1-CHO cells)
Parameters: expressed in transfected cells; host or cells: CHO-K1 cells (ATCC: CCL-61), G418-resistant, hNK1-CHO
conditionNotes: Table 2; inhibition of [3H]-Substance P (0.5 nM) binding to hNK1-CHO cells, pseudo-Hill analysis; read-out: NK-1
Counter-ions that a name gives are not always drawn.
parameterMeasured: IC50 (nM)

Below: 3 compounds and their reported IC50.
INSERT INTO assay_data (compound, parametermeasured, assayresult) VALUES
  ('COc1cc(COC[C@](CCCN2CCC3(CC2)c2ccccc2C[S@+]3[O-])(c2ccc(Cl)c(Cl)c2)N(C)C(=O)NCc2ccccc2F)cc(OC)c1OC [Compound No. 617, hydrochloride]', 'IC50', 0.54),
  ('COc1cc(COC[C@](CCCN2CCC3(CC2)c2ccccc2C[S@+]3[O-])(c2ccc(Cl)c(Cl)c2)N(C)C(=O)NC2CCCCC2)cc(OC)c1OC [Compound No. 599, hydrochloride]', 'IC50', 0.73),
  ('COc1cc(COCC(CCCN2CCC(C(N)=O)(c3ccccc3)CC2)(c2ccc(Cl)c(Cl)c2)N(C)C(=O)Nc2ccccc2)cc(OC)c1OC (racemic) [Compound No. 15]', 'IC50', 0.9);

[P] COc1cc(COC[C@](CCCN2CCC3(CC2)c2ccccc2C[S@+]3[O-])(c2ccc(Cl)c(Cl)c2)N(C)C(=O)NCc2cccc(F)c2)cc(OC)c1OC [Compound No. 618, hydrochloride]
[Q] COc1cc(COC[C@](CCCN2CCC3(CC2)c2ccccc2C[S@+]3[O-])(c2ccc(Cl)c(Cl)c2)N(C)C(=O)Nc2cccc(F)c2)cc(OC)c1OC [Compound No. 615, hydrochloride]
Compare the recorded IC50 of P and Q ; state which is larger. Select an item and report its label.
P
